// values below are reported IC50
# testTarget: human LOXL2 (Homo sapiens (Human))
# experimentalDetails: Human LOXL2 Amine Oxidase Activity Assay (Amplex Red fluorescence)
# Assay type: biochemical
# measurementContext: concentrated conditioned media from CHO cells stably expressing human LOXL2; 2 h at 37° C. preincubation; DAP substrate; read-out: IC50
Structures can show the parent of a compound that is named as a salt.

{"molecule": "NCc1ccnc(O[C@H]2CCCN(C(=O)c3ccccc3)C2)c1 [Compound 2-38, trifluoroacetate]", "testTarget": "human LOXL2 (Homo sapiens (Human))", "IC50": "< 300 nM"}
{"molecule": "Cc1ccc(C(=O)Nc2cc(CN)ccn2)c(F)c1 [Compound 2-42, trifluoroacetate]", "testTarget": "human LOXL2 (Homo sapiens (Human))", "IC50": "300 to 1000 nM"}
{"molecule": "NCc1ccnc(Oc2ccc(C(=O)Nc3ccccc3)cc2)c1 [Compound 1-13, hydrochloride]", "testTarget": "human LOXL2 (Homo sapiens (Human))", "IC50": "< 300 nM"}
{"molecule": "COCCNC(=O)c1cccc(-c2cc(CN)ccn2)c1 [Compound 1-5, hydrochloride]", "testTarget": "human LOXL2 (Homo sapiens (Human))", "IC50": "< 300 nM"}
{"molecule": "Cc1nn(Cc2ccc(F)cc2F)c2cccc(Oc3cc(CN)ccn3)c12 [Compound 2-35, trifluoroacetate]", "testTarget": "human LOXL2 (Homo sapiens (Human))", "IC50": "< 300 nM"}
{"molecule": "NCc1ccnc(Oc2cccc3c2ccn3Cc2ccc(F)cn2)c1 [Compound 2-15, hydrochloride]", "testTarget": "human LOXL2 (Homo sapiens (Human))", "IC50": "< 300 nM"}
{"molecule": "NCc1ccnc(Oc2cccc(C(=O)NCc3cccc(C(=O)O)c3)c2)c1 [Compound 1-35, hydrochloride]", "testTarget": "human LOXL2 (Homo sapiens (Human))", "IC50": "< 300 nM"}

Request: I would be grateful if you could share the reported IC50 for NCc1ccnc(N2CCC(O)(C(F)(F)F)C2)c1 (racemic) .
Response: > 1000 nM

====

# testTarget: human LOXL2 (Homo sapiens (Human))
# experimentalDetails: Human LOXL2 Amine Oxidase Activity Assay (Amplex Red fluorescence)
# Type: biochemical
# measurementContext: concentrated conditioned media from CHO cells stably expressing human LOXL2; 2 h at 37° C. preincubation; DAP substrate; read-out: IC50
pIC50: −log10 of the molar value. Counter-ions that a name gives are not always drawn.
// values below are reported pIC50

{"compound": "NCc1ccnc(Oc2cccc3c2ccn3CC(=O)N2CCCC(O)(C(F)(F)F)C2)c1 (single isomer, unassigned) [Compound 2-29, hydrochloride]", "valueObserved": "6.00 to 6.52"}
{"compound": "NCc1ccnc(-c2ccc(C(=O)NCc3ccccc3)cc2)c1 [Compound 1-4, hydrochloride]", "valueObserved": "> 6.52"}

Request: I would be grateful if you could share the reported pIC50 for NCc1ccnc(Oc2cccc3c2ccn3CC(=O)N2CCCC(O)(C(F)(F)F)C2)c1 (single isomer, unassigned) [Compound 2-28, hydrochloride] .
Response: > 6.52

====

// values below are reported IC50
# testTarget: human LOXL2 (Homo sapiens (Human), UniProt Q9Y4K0)
# Sequence (Q9Y4K0 26-774): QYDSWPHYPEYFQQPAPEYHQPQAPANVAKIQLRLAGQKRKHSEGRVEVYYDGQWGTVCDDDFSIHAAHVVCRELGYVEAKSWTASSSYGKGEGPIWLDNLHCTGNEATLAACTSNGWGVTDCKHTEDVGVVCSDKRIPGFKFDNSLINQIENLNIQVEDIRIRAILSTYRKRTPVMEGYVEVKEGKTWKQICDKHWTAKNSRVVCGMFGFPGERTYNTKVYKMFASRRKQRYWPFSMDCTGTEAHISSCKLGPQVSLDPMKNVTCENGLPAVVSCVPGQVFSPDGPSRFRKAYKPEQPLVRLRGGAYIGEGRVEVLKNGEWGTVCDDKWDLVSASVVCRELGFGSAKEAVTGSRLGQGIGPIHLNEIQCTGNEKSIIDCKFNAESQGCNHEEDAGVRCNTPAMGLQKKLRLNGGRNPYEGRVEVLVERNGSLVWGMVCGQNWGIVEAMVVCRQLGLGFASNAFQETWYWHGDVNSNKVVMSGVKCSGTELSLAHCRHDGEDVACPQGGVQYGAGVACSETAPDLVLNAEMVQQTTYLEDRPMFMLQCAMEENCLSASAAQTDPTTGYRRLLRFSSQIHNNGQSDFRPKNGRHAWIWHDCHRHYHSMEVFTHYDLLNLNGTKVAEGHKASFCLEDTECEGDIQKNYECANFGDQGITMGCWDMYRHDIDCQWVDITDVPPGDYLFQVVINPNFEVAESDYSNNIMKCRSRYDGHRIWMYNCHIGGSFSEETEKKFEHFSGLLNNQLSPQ
# experimentalDetails: Human LOXL2 Amine Oxidase Activity Assay (Amplex Red fluorescence)
# Assay type: biochemical
# measurementContext: concentrated conditioned media from CHO cells stably expressing human LOXL2; 2 h at 37° C. preincubation; DAP substrate; read-out: IC50
Structures can show the parent of a compound that is named as a salt.

{"compound": "NCc1ccnc(Oc2cccc(C(=O)N3CCC(O)(C(F)(F)F)C3)c2)c1 (racemic) [Compound 1-16, hydrochloride]", "valueObserved": "< 300 nM"}
{"compound": "COC(=O)c1ccc(NC(=O)c2cccc(Oc3cc(CN)ccn3)c2)cc1 [Compound 1-26, hydrochloride]", "valueObserved": "< 300 nM"}
{"compound": "NCc1ccnc(-c2cccc(C(=O)Nc3cc(Cl)cc4[nH]ccc34)c2)c1 [Compound 1-10, hydrochloride]", "valueObserved": "< 300 nM"}

Request: I would be grateful if you could share the reported IC50 for "NCc1ccnc(O[C@H]2CCCN(C(=O)Nc3ccccc3)C2)c1" .
Response: < 300 nM

Request: I would be grateful if you could share the reported IC50 for "NCc1ccnc(Oc2cccc(Oc3ccccc3)c2)c1" .
Response: < 300 nM

Request: I would be grateful if you could share the reported IC50 for NCc1ccnc(Oc2cccc(C(=O)NCc3ccccc3)c2)c1 [Compound 1-18, hydrochloride] .
Response: < 300 nM

Request: I would be grateful if you could share the reported IC50 for N=C(N)c1cccc(CNC(=O)c2cccc(Oc3cc(CN)ccn3)c2)c1 [Compound 1-39, dihydrochloride] .
Response: < 300 nM

Request: I would be grateful if you could share the reported IC50 for NCc1ccnc(Oc2cccc(C(=O)Nc3ccc(Br)cc3)c2)c1 [Compound 1-25, hydrochloride] .
Response: < 300 nM

Request: I would be grateful if you could share the reported IC50 for NCc1ccnc(Oc2cccc3c2ccn3Cc2ccccc2)c1 [Compound 2-10, hydrochloride] .
Response: < 300 nM

Request: I would be grateful if you could share the reported IC50 for NCc1ccnc(Oc2cccc(C(=O)NCc3ccc(-n4ccnc4)c(F)c3)c2)c1 [Compound 1-37, dihydrochloride] .
Response: < 300 nM

Request: I would be grateful if you could share the reported IC50 for COCCNC(=O)c1cccc(Oc2cc(CN)ccn2)c1 [Compound 1-15, hydrochloride] .
Response: < 300 nM

Request: I would be grateful if you could share the reported IC50 for CN(C(=O)Cn1ccc2c(Oc3cc(CN)ccn3)cccc21)c1ccccc1 [Compound 2-30, hydrochloride] .
Response: < 300 nM
